B1: Transitional endoplasmic reticulum ATPase, residues 26 to 106; numbered along this chain, P55072 (parent)
chain: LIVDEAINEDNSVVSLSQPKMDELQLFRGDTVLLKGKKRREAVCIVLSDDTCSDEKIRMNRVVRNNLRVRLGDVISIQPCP

- Variants of: B1
- Assay name: abundance fitness (aPCA) (normalised: wild type 0, dead -1); higher = more abundant; growth selection in yeast, the domain comes from the species named
- Conditions: Homo sapiens
abundance fitness for assorted variants

>  <Variant descriptor>
R61V

>  <abundance fitness>
-0.005

$$$$
>  <Variant descriptor>
I57C

>  <abundance fitness>
-0.492

$$$$
>  <Variant descriptor>
V63R

>  <abundance fitness>
-0.445

$$$$
>  <Variant descriptor>
R39G

>  <abundance fitness>
0.008

$$$$
>  <Variant descriptor>
V46C

>  <abundance fitness>
-0.048

$$$$
>  <Variant descriptor>
V32A

>  <abundance fitness>
-0.18

$$$$
>  <Variant descriptor>
N65L

>  <abundance fitness>
-0.074

$$$$
>  <Variant descriptor>
A6V

>  <abundance fitness>
-0.133

$$$$
>  <Variant descriptor>
R39N

>  <abundance fitness>
-0.17

$$$$
>  <Variant descriptor>
E55W

>  <abundance fitness>
-0.148

$$$$
>  <Variant descriptor>
I77C

>  <abundance fitness>
-0.074

$$$$
>  <Variant descriptor>
V43N

>  <abundance fitness>
-0.176

$$$$
>  <Variant descriptor>
G72R

>  <abundance fitness>
-0.177

$$$$
>  <Variant descriptor>
S12Q

>  <abundance fitness>
0.093

$$$$
>  <Variant descriptor>
V43G

>  <abundance fitness>
-0.289

$$$$
>  <Variant descriptor>
R39L

>  <abundance fitness>
-0.054

$$$$
>  <Variant descriptor>
V74D

>  <abundance fitness>
-0.022

$$$$
>  <Variant descriptor>
R28F

>  <abundance fitness>
-0.401

$$$$
>  <Variant descriptor>
P19C

>  <abundance fitness>
-0.179

$$$$
>  <Variant descriptor>
L34K

>  <abundance fitness>
-0.806

$$$$
>  <Variant descriptor>
R39I

>  <abundance fitness>
-0.082

$$$$
>  <Variant descriptor>
N65S

>  <abundance fitness>
0.025

$$$$
